# maps each entry to its protein stability index
B1: DUSP5 (parent)
chain: YSEYPECCVDVKPISQEKIESERA

Variants of: B1
Assay: protein stability index of a GFP-peptide fusion (GPS, HEK-293T) (PSI 1-6); higher = more stable;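 further: lentivirally expressed fusions sorted by FACS into six bins by GFP to DsRed ratio, PSI derived from sequencing read proportions per bin multiplied by bin number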
Details: c terminus: a fixed tail appended
Respond using a number only.

YFEYPECCVDVKPISQEKIESERA ... 4.11
YSEYPECCVDVKPISQEKIESEIA ... 4.24
YSEYPECCVDVKCISQEKIESERA ... 4.88
YSEYPEPCVDVKPISQEKIESERA ... 5.4
YSEYPECCVDVKPGSQEKIESERA ... 3.83
YSEYPECCVYVKPISQEKIESERA ... 3.04
YSEYPECCVDVKPISQEKIESVRA ... 3.05
YSEYPECCDDVKPISQEKIESERA ... 4.12

Consider the variant FSEYPECCVDVKPISQEKIESERA and give its measured protein stability index. 4.12

Another: YSEYPECCVDVKPISQEKIESERF 2.43

Entry YSEYPECCVDVKPISQEKWESERA please 4.24

All figures here come from the supplement of paper PMC10567573.
